target: UniProtKB Q9NR22; experiment: PRMT8 Biochemical Assay (3H-SAM Flashplate, peptide substrate); settings: single experiment or average of multiple experiments
Sequence (Q9NR22 whole entry): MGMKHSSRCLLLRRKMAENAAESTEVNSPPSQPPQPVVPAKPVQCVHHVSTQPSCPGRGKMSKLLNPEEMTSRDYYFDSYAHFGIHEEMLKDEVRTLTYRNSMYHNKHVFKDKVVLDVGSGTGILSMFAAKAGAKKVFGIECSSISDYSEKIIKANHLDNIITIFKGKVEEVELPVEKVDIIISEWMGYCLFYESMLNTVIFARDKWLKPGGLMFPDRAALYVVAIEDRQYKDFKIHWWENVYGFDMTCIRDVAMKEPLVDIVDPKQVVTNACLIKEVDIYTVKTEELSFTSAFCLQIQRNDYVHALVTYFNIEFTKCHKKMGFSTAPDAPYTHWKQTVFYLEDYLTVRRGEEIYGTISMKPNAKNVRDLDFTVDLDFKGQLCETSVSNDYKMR
readout_name: log10(IC50) (log10 of the value in nM)

1) CN(CCN)Cc1c[nH]nc1-c1ccc(C(F)(F)F)c(F)c1 2.48
2) CNCCN(C)Cc1c[nH]nc1-c1ccc(Oc2ccncn2)cc1 1.96
3) CNCCN(C)Cc1c[nH]nc1-c1cc(Cl)ccc1OC 4.11
4) CNCCN(C)Cc1cnn(CC(=O)OC)c1-c1ccc(OC(C)C)cc1 3.18
5) CCC(CC)Oc1ccc(-c2n[nH]cc2CN(C)CCNC)cc1 1.03
6) CNCCN(C)Cc1cn(CC(=O)O)nc1-c1ccc(OC(C)C)cc1 3.40
7) CNCCN(C)Cc1c[nH]nc1-c1ccccc1F 3.34
8) Cc1cc(-c2n[nH]cc2CN(C)CCN)cc(C)c1OC(C)C 2.66
9) CC(C)CN(C)C(=O)c1ccc(-c2n[nH]cc2CN(C)CCN)cc1 3.34
10) CNCCN(C)Cc1cn(C2CCCCC2)nc1-c1ccc(OC(C)C)cc1 3.42
11) CNCCN(C)Cc1c[nH]nc1-c1ccc(C(F)(F)F)cc1 2.36
12) CC(=O)c1cccc(-c2n[nH]cc2CN(C)CCN)c1 2.53
13) CN(CCN)Cc1c[nH]nc1-c1ccc(Cl)c(F)c1 2.13
14) CN(CCN(C)C1CC1)Cc1c[nH]nc1-c1ccc(C#N)cc1 3.48
15) CNCCN(C)Cc1c[nH]nc1-c1ccccc1O 4.39
16) CNCCN(C)Cc1c[nH]nc1-c1cccc(OC)c1OC 3.88
17) COc1ccc(-c2n[nH]cc2CN(C)CCN)c(Cl)c1 3.05
18) CN(CCN)Cc1c[nH]nc1-c1ccc(OCCCO)cc1 2.60
19) CNCCN(C)Cc1c[nH]nc1-c1ccc(Oc2ccccc2)c(C#N)c1 2.52
20) CNCCN(C)Cc1c[nH]nc1-c1ccccc1C(F)(F)F 4.00
21) COc1ccc(F)cc1-c1n[nH]cc1CN(C)CCN 3.48
22) CNCCN(C)Cc1c[nH]nc1-c1ccccc1OC 3.52
23) Cc1ccc(F)cc1-c1n[nH]cc1CN(C)CCN 2.94
24) CNCCN(C)Cc1n[nH]cc1-c1ccc(OC(C)C)c(F)c1 2.26
25) CN(CCN)Cc1cnn(C2COC2)c1-c1ccc(F)cc1 3.54
26) CNCCN(C)Cc1c[nH]nc1-c1ccc(OCCCOC)cc1 2.68
27) CNCCN(C)Cc1c[nH]nc1-c1ccc(Oc2ccccc2)c(F)c1 0.82
28) CNCCN(C)Cc1c[nH]nc1-c1ccccc1-c1ccccc1 4.08
29) CN(CCN)Cc1c[nH]nc1-c1ccc(F)cc1F 3.34
30) COc1cc(-c2n[nH]cc2CN(C)CCN)ccc1F 2.44
31) CN(CCN)Cc1c[nH]nc1-c1cc(Cl)cc(Cl)c1 2.82
32) CN(CCN)Cc1c[nH]nc1-c1ccc(OC(F)F)cc1 2.30
33) CNCCN(C)Cc1c[nH]nc1-c1ccc(OC)c(F)c1 2.34
34) CNCCN(C)Cc1c[nH]nc1-c1ccc(F)cc1F 2.87
35) CN(CCN)Cc1c[nH]nc1-c1cc(Cl)ccc1F 3.23
36) CC(C)CN1C(=O)COc2cc(-c3n[nH]cc3CN(C)CCN)ccc21 2.93
